- Tested On: HLA-A*33:01
- Assay Name: IEDB peptide-MHC binding, purified MHC/competitive/radioactivity; filed as Kd, often an IC50 or EC50 that approximates it; bounds were set here for any values at or beyond the usual limits of such assays
- Protocol Conditions: source organism: SARS coronavirus Tor2
Quick reference: pKd of the listed items.
Lab note: report pKd as minus log10 of the concentration in molar units, number only.

Check out these entries, answers already filled in.
{"columns": ["Macromolecule Sequence", "Tested On", "Attribute Measured", "Value Measured"],
 "data": [
  ["TTTIKPVSYK", "HLA-A*33:01", "pKd", 4.97],
  ["NATFFIFNK", "HLA-A*33:01", "pKd", 7.06],
  ["WFSQRGGSYK", "HLA-A*33:01", "pKd", 6.94],
  ["NLCTHSFRK", "HLA-A*33:01", "pKd", 5.01],
  ["GVIRSIFAR", "HLA-A*33:01", "pKd", 6.93]
]}

// returns reported pKd for input `VLHDIGNPK`
5.11

What value of pKd has been reported for the following sequence? `CLFDRYFKY`
5.81

Can you look up the measured pKd of `DTVWEVQGYK` for me?
5.77

###

Listing of recorded pKd by entry.
- Tested On: HLA-A*02:01
- Assay Name: IEDB peptide-MHC binding, purified MHC/direct/fluorescence; filed as Kd, often an IC50 or EC50 that approximates it; bounds were set here for any values at or beyond the usual limits of such assays
- Protocol Conditions: source organism: Camelpox virus M-96
pKd: −log10 of the molar value.

Below, each entry is followed by its recorded pKd result.
{"columns": ["Macromolecule Sequence", "pKd"],
 "data": [
  ["FLQQSIFRF", 6.81],
  ["NYFNRMFHF", "≤ 4.70"]
]}

Pending sequence:
Query pKd on HLA-A*02:01 for `KYFDDVTAF`
≤ 4.70

###

- Tested On: HLA-A*03:01
- Assay Name: IEDB peptide-MHC binding, purified MHC/direct/fluorescence; filed as Kd, often an IC50 or EC50 that approximates it; bounds were set here for any values at or beyond the usual limits of such assays
- Protocol Conditions: source organism: SARS-CoV1
Attribute Measured: pKd
# pKd: negative log10 of molar concentration; output just the value

Quick check: pKd on HLA-A*03:01, item `FMGRIRSVY` ?
5.63

###

- Tested On: HLA-B*27:05
- Assay Name: IEDB peptide-MHC binding, purified MHC/direct/fluorescence; filed as Kd, often an IC50 or EC50 that approximates it; bounds were set here for any values at or beyond the usual limits of such assays
- Protocol Conditions: source organism: Influenza A virus (A/Puerto Rico/8/34/Mount Sinai(H1N1))
Attribute Measured: Kd (nM)
# value in nM; strip the unit string

# input sequence: `RRVRDNMTK` ; wanted: its Kd
450

###

- Tested On: HLA-A*02:01
- Assay Name: IEDB peptide-MHC binding, purified MHC/direct/fluorescence; filed as Kd, often an IC50 or EC50 that approximates it; bounds were set here for any values at or beyond the usual limits of such assays
- Protocol Conditions: source organism: Giardia lamblia ATCC 50803
Attribute Measured: Kd

Answered examples (3):
{"columns": ["Macromolecule Sequence", "Kd"],
 "data": [
  ["RENQVAVVR", "≥ 20 µM"],
  ["ATSGYRIAY", "≥ 20 µM"],
  ["EFFDTEPQL", "≥ 20 µM"]
]}

Reported Kd, sequence `KLLQICMWF` : ____
3.41 µM

Dear colleague, I am looking for the recorded Kd of the following sequence: `PTKCGENLY`
≥ 20 µM

Sample `KTPWDRFCK` — what was its Kd?
≥ 20 µM
